- test.system: T1, Abp1, P15891
- T1 sequence (P15891 535-592, looked up): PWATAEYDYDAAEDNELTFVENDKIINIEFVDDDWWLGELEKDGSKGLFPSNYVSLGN
- assay.name: SPOT array
- conditions.used: median of control spots 935
experimental.endpoint: SPOT intensity

{"binder": "VFQFQMPTTPISTKM", "SPOT intensity": 32}
{"binder": "PSTMDFPKLPSFQNS", "SPOT intensity": 99}
{"binder": "KKAPPPVVKPKPRNF", "SPOT intensity": 899}
{"binder": "NRLRKRLNLPSEISI", "SPOT intensity": 36}
{"binder": "PAPPPPPRASRPTPN", "SPOT intensity": 0}
{"binder": "GTIARPLFLVVLFFI", "SPOT intensity": 0}

a: KKEKKPPKIPKKVYT
b: KWVRRPKLMTPLTFS
Returns: the argument ( a or b ) having the larger SPOT intensity. Lab log: write the label of the selected item as the result.
a
(a: 161, b: 67)

P: QPPLPSSAPPIPTSH
Q: AIPPPVPNRPGGTTN
Which has the higher SPOT intensity, P or Q ? # reply format: chosen label
Q
(Q: 7, P: 0)

1: HHNRRKPLEVYFKAT
2: NRARYLPQNPDIIAG
Parameter metric = SPOT intensity. Return the lower-valued option from 1 and 2 . Output the label that corresponds to your choice.
2
(2: 5, 1: 10)

1: IFLRISINFPLNYPN
2: PSRRAPLQLPQLVNK
// compare measured SPOT intensity, left 1 , right 2 , return larger Lab log: write the label of the selected item as the result.
1

P: VQKRKLPLPGSIASA
Q: GLRRARYKFPGQQKI
R: RRTRLRPPTPLSQLL
Order field: SPOT intensity | Direction: descending (largest first) Use the labels to give the ranking in the order requested.
P, R, Q
(P: 157, R: 103, Q: 47)

1: DTFLPPPPPPPSNFE
2: LLRRTIPKRPFYHVL
SPOT intensity comparison. Which is larger, 1 or 2 ? Respond with the label that goes with your answer.
2

A: PHNPSPFFPPPDFND
B: NFFRKKLGIPRKLKR
Select the item whose SPOT intensity value is smaller, choosing between A and B . Lab note: record the label of whichever item you select.
A
(A: 0, B: 99)
